# pIC50 annotations
# system.name: Human immunodeficiency virus type 1 protease (Human immunodeficiency virus 1)
# test.details: Compound was tested for 50% irreversible inhibition of HIV-1 protease; value ranges from 10-50
// pIC50: -log10(molar conc.)

Examples with their reported pIC50 follow.
> print(dat)
                            chemical.string  outcome.measure  reported.measurement
1  CC(C)[C@H](Cc1ccccc1)NC(=O)C[C@@H]1O[C@@H]1[C@H](Cc1ccccc1)NC(=O)[C@H](CC(N)=O)NC(=O)c1ccc2ccccc2n1            pIC50                  8.00
2  CONC(=O)[C@H](NC(=O)C[C@@H]1O[C@@H]1[C@H](Cc1ccccc1)NC(=O)[C@H](CC(N)=O)NC(=O)c1ccc2ccccc2n1)C(C)C            pIC50                  8.00

Now, please, on to the next molecule.
In: Find the measured pIC50 of CC(C)[C@@H](NC(=O)C[C@@H]1O[C@@H]1[C@H](Cc1ccccc1)NC(=O)[C@H](CC(N)=O)NC(=O)c1ccc2ccccc2n1)c1ccccc1 and report it.
Out: 8.00
